- Test system: Caspase 3
- TEST_METHOD_NOTES: Caspase 3 detection assay in SJSA1 cells
- Format: cell-based
- CONDITION_DESCRIPTION: 0.3 μM, SJSA1, 48 h, Caspase 3 activation over DMSO-treated cells
Bridge positions count the residues as written; N and C are the ends. Square brackets hold non-standard residues; d marks the D form. Peptide text beside a SMILES is read from it. R8 = C=CCCCCCC[C@@](C)(N)C(=O)O; S5 = C=CCCC[C@](C)(N)C(=O)O
RECORDED_METRIC: caspase 0.3 μM
Respond with the number and no other words.

Exercise: What value of caspase 0.3 μM has been recorded for this entry: CC(=O)N[C@@H](CC(C)C)C(=O)N[C@H](C(=O)N[C@@H](Cc1ccccc1)C(=O)N[C@]1(C)CCCCCCC=CCCC[C@@](C)(C(=O)N[C@@H](C)C(=O)N[C@@H](C)C(=O)N[C@@H](Cc2ccccc2)C(=O)N[C@H](C)C(N)=O)NC(=O)[C@H](CC(C)C)NC(=O)[C@H](CCC(N)=O)NC(=O)[C@H](C)NC(=O)[C@H](Cc2c[nH]c3ccccc23)NC(=O)[C@H](Cc2ccc(O)cc2)NC(=O)[C@H](CCC(=O)O)NC1=O)[C@@H](C)O (single isomer, unassigned) [compound 219]
Key: 1

Exercise: Follow-up item: CC(=O)N[C@@H](CC(C)C)C(=O)N[C@H](C(=O)N[C@@H](Cc1ccccc1)C(=O)N[C@]1(C)CCCCCC/C=C/CCC[C@@](C)(C(=O)N[C@@H](C)C(=O)N[C@@H](C)C(=O)N[C@@H](C)C(=O)N[C@@H](C)C(=O)N[C@@H](C)C(=O)N[C@H](C)C(N)=O)NC(=O)[C@H](CC2CCC2)NC(=O)[C@H](CCC(N)=O)NC(=O)[C@H](CO)NC(=O)[C@H](Cc2c[nH]c3ccccc23)NC(=O)[C@H](Cc2ccc(O)cc2)NC(=O)[C@H](CCC(=O)O)NC1=O)[C@@H](C)O
Key: 3

Exercise: Follow-up item: CC(=O)N[C@@H](CC(C)C)C(=O)N[C@H](C(=O)N[C@@H](Cc1ccccc1)C(=O)N[C@]1(C)CCCCCCC=CCCC[C@@](C)(C(=O)N[C@@H](C)C(=O)N[C@@H](C)C(=O)N[C@H](C(=O)N[C@H](C)C(N)=O)C(C)C)NC(=O)[C@H](CC(C)C)NC(=O)[C@H](CCC(N)=O)NC(=O)[C@H](C)NC(=O)[C@H](Cc2c[nH]c3ccccc23)NC(=O)[C@H](Cc2ccc(O)cc2)NC(=O)[C@H](CCC(=O)O)NC1=O)[C@@H](C)O (single isomer, unassigned)
Key: 1

Exercise: Follow-up item: CC[C@H](C)[C@H](NC(=O)[C@H](C)NC(=O)[C@H](C)NC(=O)[C@]1(C)CCCC=CCCCCCC[C@@](C)(NC(=O)[C@H](Cc2ccccc2)NC(=O)[C@@H](NC(=O)[C@H](CC(C)C)NC(C)=O)[C@@H](C)O)C(=O)N[C@@H](CCC(=O)O)C(=O)N[C@@H](Cc2c[nH]cn2)C(=O)N[C@@H](Cc2c[nH]c3ccccc23)C(=O)N[C@@H](C)C(=O)N[C@@H](CCC(N)=O)C(=O)N[C@@H](CC(C)C)C(=O)N1)C(=O)N[C@H](C)C(N)=O (single isomer, unassigned)
Key: 1

Exercise: Follow-up item: CC(=O)N[C@@H](CC(C)C)C(=O)N[C@H](C(=O)N[C@@H](Cc1ccccc1)C(=O)N[C@]1(C)CCCCCCC=CCCC[C@@](C)(C(=O)N[C@@H](CO)C(=O)N[C@@H](C)C(=O)N[C@@H](C)C(N)=O)NC(=O)[C@H](CC(C)C)NC(=O)[C@H](C)NC(=O)[C@H](C)NC(=O)[C@H](Cc2c[nH]c3ccccc23)NC(=O)[C@H](Cc2c[nH]cn2)NC(=O)[C@H](C)NC1=O)[C@@H](C)O [compound 197] (Ac-LTF[R8]AHWAAL[S5]SAA-NH2; staple 4-11)
Key: 1
